# credit: ChEMBL document CHEMBL4619793

# assayInfo: Total clearance in Sprague-Dawley rat at 0.5 mg/kg, iv
# Format: ADME, organism-based
# conditions: in vivo
measuredEndpoint: clearance (mL/min/kg)
Just the number in mL/min/kg, nothing appended.

Q: Quick one: clearance of `O=C(O)c1cnn(-c2nc3cnn(Cc4ccc(-c5ccccc5)cc4)c3c(=O)[nH]2)c1` ?
A: 1.52

* * *

# assayInfo: Total clearance in Sprague-Dawley rat at 1 mg/kg, iv
# Format: ADME, organism-based
# conditions: in vivo
measuredEndpoint: clearance (mL/min/kg)
Write the number in mL/min/kg without appending the unit.

Q: Which clearance value is on record for `C[C@@H](c1cc(Cl)ccc1Cl)n1ncc2nc(-n3cc(C(=O)O)cn3)[nH]c(=O)c21` ?
A: 0.567
